- Tested on: DU-145 prostate
- experiment_notes: NCI tumour cell line growth inhibition, 48 h
experimental_readout: TGI (µM)

INSERT INTO assay_data (compound, display_unit, modifier_sign, test_value) VALUES
  ('Nc1nc(-c2ccccc2)c(-c2ccccc2)c(-c2nc(N)nc(-c3ccccc3)c2-c2ccccc2)n1', 'µM', '>', 100),
  ('O=S(=O)(NCCNc1nccc(-c2c(-c3cccc(O)c3)nc3sccn23)n1)c1ccc(F)cc1', 'µM', '=', 38.7),
  ('COc1cc2c(cc1OC)C(CCc1ccc(Cl)cc1)N(C)CC2 (configuration not stated)', 'µM', '>', 100),
  ('COc1cc(CNC(=O)/C=C/C=C/c2ccc3c(c2)OCO3)ccc1OCc1cn(-c2ccc(Cl)c(Cl)c2)nn1', 'µM', '=', 3.16),
  ('CCN(CC)CCN1c2ccccc2Sc2ccc3ccccc3c21', 'µM', '=', 12.3),
  ('Cc1csc2c(P(=O)(OC(C)C)OC(C)C)c(-c3ccccc3)cn12', 'µM', '=', 32.9),
  ('CN(CCCNC(=O)c1cn(C)c2c1ccc1cc(Cl)ccc12)CCCNC(=O)c1cn(C)c2c1ccc1cc(Cl)ccc12', 'µM', '=', 3.79),
  ('CCOC(=O)/C(C(=S)NC)=C(/N)N1CCCC1', 'µM', '>', 100),
  ('c1ccc(Cc2cccc3cc(-c4ccc(-c5ccccc5)cc4)[nH]c23)cc1', 'µM', '>', 100),
  ('NNC(N)=Nc1cccc2ccccc12', 'µM', '>', 100),
  ('Cc1c2c(c(C)c3c[n+](C)ccc13)Oc1ccccc1O2', 'µM', '>', 100),
  ('COc1ccc(Nc2c3ccccc3nc3c2c2ccccc2n3C)cc1', 'µM', '>', 100),
  ('CC(C)OP(=O)(OC(C)C)C(C(F)(F)F)C(F)(F)F', 'µM', '>', 100),
  ('Cn1c(-c2ccccc2)cc(-c2ccc3c(c2)OCO3)c1-c1cccs1', 'µM', '>', 100),
  ('CC1C2Cc3ccc(O)cc3C1(C)CCN2C (configuration not stated)', 'µM', '>', 100),
  ('COC(=O)/C(C#N)=C\N1CCN(C(=O)c2ccco2)C1=S', 'µM', '=', 14),
  ('COc1ccc2c(c1)C(=O)c1c-2n(CCCN=[N+]=[N-])c(=O)c2ccccc12', 'µM', '>', 100),
  ('O=C(CCCn1c2c(sc3ncccc32)c(=O)n2nnc(-c3ccccc3)c12)NCCc1cnc[nH]1', 'µM', '=', 19.7),
  ('COc1ccc(/C=C2/C(=O)N(C(=O)c3ccccc3O)N=C2C)cc1OC', 'µM', '>', 100),
  ('CC/C(=N\Nc1nc2ccccc2n1C)c1ccccn1', 'µM', '=', 12.7),
  ('CC1=C(N2CC2)C(=O)C(CO)=C(N2CC2)C1=O', 'µM', '=', 1.3),
  ('O=C(CC(=O)c1ccncc1)c1ccccc1', 'µM', '>', 100);

----------
Below are GI50 values recorded for CAKI-1 renal.
experimental_readout: GI50

INSERT INTO measurements (compound, experimental_readout, test_value) VALUES
  ('Fc1ccc(-c2nc(-c3nc4ccc(Cl)cc4[nH]3)cc3c2[nH]c2ccccc23)cc1', 'GI50', '3.22 µM'),
  ('CCCc1cc(=O)oc2c(C(=O)CC(C)C)c(O)c(CC=C(C)C)c(O)c12', 'GI50', '8.38 µM'),
  ('CN(C)CC(C(=O)c1ccccc1)c1ccccc1 (centres undefined)', 'GI50', '0.966 µM'),
  ('CCOP(=O)(CCP(=O)(OCC)OCC)OCC.C[CH2][Sn]([Cl])([Cl])[CH2]C', 'GI50', '13.9 µM');
